Here's a batch of compounds along with measured IC50 for Tyrosine-protein kinase BTK (Homo sapiens, UniProt Q06187).
Measurement type: IC50

1. Cc1c(NC(=O)c2ccc(C(C)(C)C)nc2)cccc1-c1cn(C)c(=O)c(Nc2ccc(C(=O)N3CCOCC3)cc2)n1 0.65 µM
2. Cc1c(N)cccc1-c1cn(C)c(=O)c(Nc2ccc(C(=O)N3CCOCC3)cc2)n1 5.44 µM
